Documented protein stability index across a set of variants
B1: ACSBG2 (parent)
chain: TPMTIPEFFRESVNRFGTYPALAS

- Variants of: B1
- assay_notes: protein stability index of a GFP-peptide fusion (GPS, HEK-293T) (PSI 1-6); higher = more stable;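 also: lentivirally expressed fusions sorted by FACS into six bins by GFP to DsRed ratio, PSI derived from sequencing read proportions per bin multiplied by bin number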
- particulars: c terminus: a fixed tail appended
measure: protein stability index

INSERT INTO assay_data (mutation_string, reported_result) VALUES
  ('E11Y', 1.68),
  ('F9N', 3.16),
  ('S12Y', 1.86),
  ('I5R', 2.97),
  ('R15S', 2.64),
  ('P2F', 1.83),
  ('N14L', 1.62),
  ('E7H', 2.94),
  ('F8L', 2.66),
  ('P2Y', 2.88),
  ('F9P', 2.79),
  ('T18V', 2.29),
  ('F16Y', 2.22),
  ('E7S', 2),
  ('G17A', 1.78);
